Target: Human IP6K1 (Homo sapiens)
Construct: GST (N, cleaved yes); made in house; host or cells: C43 E. coli, pGEX-6P-2
Sequence (Q92551 whole entry): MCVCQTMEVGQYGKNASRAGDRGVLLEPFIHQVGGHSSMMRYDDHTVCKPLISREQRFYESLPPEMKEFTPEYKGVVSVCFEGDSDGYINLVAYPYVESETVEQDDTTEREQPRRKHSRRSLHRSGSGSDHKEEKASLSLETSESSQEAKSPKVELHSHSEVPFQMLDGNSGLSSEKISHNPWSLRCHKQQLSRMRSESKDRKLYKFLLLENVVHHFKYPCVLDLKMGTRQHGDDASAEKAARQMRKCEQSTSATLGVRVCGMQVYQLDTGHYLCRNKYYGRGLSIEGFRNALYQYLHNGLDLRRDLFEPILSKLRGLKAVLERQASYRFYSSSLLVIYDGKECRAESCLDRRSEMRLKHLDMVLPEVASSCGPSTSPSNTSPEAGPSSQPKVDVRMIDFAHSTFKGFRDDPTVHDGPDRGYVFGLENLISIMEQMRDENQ
Test: IP6K1 high-throughput screen of the Sigma LOPAC (ADP-Glo Max, single point);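 note: final compound concentration 10µM in 5% DMSO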
Format: biochemical
Conditions: LOPAC single-point screen, ADP-Glo Max luminescence raw signal per well
Assay Endpoint: Raw Signal
Simply state the number, no unit and no words.

May I ask what Raw Signal has been recorded for Cn1cnc([N+](=O)[O-])c1Sc1ncnc2nc[nH]c12 ?
52333

Request: CCOC(=O)c1ncn2c1CN(C)C(=O)c1cc(F)ccc1-2
52634

Request: Nc1ncn([C@@H]2O[C@H](CO)[C@@H](O)[C@H]2O)c(=O)n1
54885

Request: C[C@H](Cc1ccc(OCC(=O)[O-])cc1)NC[C@H](O)c1cccc(Cl)c1.[Na+] [BRL 37344 sodium]
53982

Request: CC(=O)NCCc1c[nH]c2ccccc12
53398

Request: Cl.O=c1cc(N2CCOCC2)oc2c(-c3ccccc3)cccc12 [LY-294,002 hydrochloride]
50825

Request: C=CCN1CC[C@@]2(C)c3cc(O)ccc3C[C@@H]1[C@@H]2C.Cl (racemic) [(±)-N-Allylnormetazocine hydrochloride]
52910

Request: Cl.OC1CCCCC1N1CCC(c2ccccc2)CC1 (racemic) [(±)-Vesamicol hydrochloride]
53363
